The measured values listed here are drawn from paper PMC12397098.

# test_target: SERT transporter (Homo sapiens, UniProt P31645)
# Sequence (P31645 whole entry): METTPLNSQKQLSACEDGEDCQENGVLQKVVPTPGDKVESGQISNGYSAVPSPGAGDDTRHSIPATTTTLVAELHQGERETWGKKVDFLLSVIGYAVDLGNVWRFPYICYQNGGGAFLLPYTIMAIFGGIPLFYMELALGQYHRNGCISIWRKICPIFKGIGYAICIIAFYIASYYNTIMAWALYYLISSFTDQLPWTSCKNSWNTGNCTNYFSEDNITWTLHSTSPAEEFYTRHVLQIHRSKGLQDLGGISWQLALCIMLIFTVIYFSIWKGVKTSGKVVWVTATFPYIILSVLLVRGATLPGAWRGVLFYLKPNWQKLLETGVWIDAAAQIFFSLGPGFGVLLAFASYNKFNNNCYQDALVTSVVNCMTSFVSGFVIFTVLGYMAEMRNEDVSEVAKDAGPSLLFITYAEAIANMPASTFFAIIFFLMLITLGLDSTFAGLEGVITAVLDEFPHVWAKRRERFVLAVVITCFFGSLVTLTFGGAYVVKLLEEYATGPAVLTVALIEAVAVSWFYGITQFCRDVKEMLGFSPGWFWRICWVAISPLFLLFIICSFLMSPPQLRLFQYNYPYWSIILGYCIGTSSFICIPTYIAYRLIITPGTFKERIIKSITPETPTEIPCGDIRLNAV
pIC50: −log10 of the molar value.

molecule: Nc1cccc2c1C(=S)N(C1CCC(=O)NC1=O)C2=O (stereo not shown) [3-MP, 3-Monothiopomalidomide]
pIC50: < 5.00

---

# test_target: UniProt P08912
# Sequence (P08912 1-532): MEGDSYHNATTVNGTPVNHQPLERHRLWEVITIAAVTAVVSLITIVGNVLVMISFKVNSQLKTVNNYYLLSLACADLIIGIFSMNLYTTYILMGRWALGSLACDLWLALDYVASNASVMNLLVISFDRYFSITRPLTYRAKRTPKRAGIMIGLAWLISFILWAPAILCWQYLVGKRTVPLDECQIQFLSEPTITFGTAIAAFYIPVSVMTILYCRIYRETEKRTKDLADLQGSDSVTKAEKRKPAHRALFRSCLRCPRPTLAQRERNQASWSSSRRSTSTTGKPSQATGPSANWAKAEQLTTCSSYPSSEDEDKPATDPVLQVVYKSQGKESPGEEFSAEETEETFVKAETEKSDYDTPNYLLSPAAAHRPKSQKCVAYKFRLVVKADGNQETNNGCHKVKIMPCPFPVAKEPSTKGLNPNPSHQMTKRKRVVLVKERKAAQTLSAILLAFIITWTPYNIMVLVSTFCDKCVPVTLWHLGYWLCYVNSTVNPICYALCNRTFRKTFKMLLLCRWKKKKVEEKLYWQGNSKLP

molecule: Nc1cccc2c1C(=S)N(C1CCC(=O)NC1=O)C2=O (stereo not shown) [3-MP, 3-Monothiopomalidomide]
IC50: > 10 µM

---

# test_target: Dopamine D1 receptor (Homo sapiens)
# Construct: NIMH Psychoactive Drug Screening Program (PDSP)
# Sequence (P21728 whole entry): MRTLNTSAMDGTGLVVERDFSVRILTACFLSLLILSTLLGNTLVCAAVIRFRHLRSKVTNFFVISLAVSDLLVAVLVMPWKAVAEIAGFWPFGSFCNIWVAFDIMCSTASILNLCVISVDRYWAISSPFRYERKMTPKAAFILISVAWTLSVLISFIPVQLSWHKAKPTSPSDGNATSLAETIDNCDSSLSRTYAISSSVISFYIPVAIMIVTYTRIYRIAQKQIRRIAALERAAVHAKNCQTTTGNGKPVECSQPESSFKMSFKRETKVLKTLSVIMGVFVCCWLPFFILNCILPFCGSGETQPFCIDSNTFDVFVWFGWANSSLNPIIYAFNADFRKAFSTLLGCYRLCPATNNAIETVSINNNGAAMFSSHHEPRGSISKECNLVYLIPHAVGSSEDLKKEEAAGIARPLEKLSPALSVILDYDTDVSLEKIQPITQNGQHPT
# assay_procedure: PDSP radioligand binding
# experimental_context: read-out: 3-MP concentration required to induce 50% inhibition of PDSP radioligand binding

compound: Nc1cccc2c1C(=S)N(C1CCC(=O)NC1=O)C2=O (stereo not shown) [3-MP, 3-Monothiopomalidomide]
IC50: > 10 µM

---

# test_target: UniProt P41145
# Sequence (P41145 whole entry): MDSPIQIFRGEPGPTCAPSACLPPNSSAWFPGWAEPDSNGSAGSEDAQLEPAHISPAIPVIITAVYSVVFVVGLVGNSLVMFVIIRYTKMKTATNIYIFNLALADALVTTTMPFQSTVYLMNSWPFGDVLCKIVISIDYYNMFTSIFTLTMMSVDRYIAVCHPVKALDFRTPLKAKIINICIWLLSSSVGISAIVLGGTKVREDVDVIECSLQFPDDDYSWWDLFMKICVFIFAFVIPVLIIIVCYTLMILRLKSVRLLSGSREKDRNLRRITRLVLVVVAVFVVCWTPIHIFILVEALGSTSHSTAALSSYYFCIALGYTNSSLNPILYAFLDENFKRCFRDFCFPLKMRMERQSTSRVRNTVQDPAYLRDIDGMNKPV
pIC50: −log10 of the molar value.

compound: Nc1cccc2c1C(=S)N(C1CCC(=O)NC1=O)C2=O (stereo not shown) [3-MP, 3-Monothiopomalidomide]
pIC50: < 5.00

---

# assay_procedure: Pharmacokinetics in the rat, I.V. and P.O.
# Format: in vivo
# experimental_context: po; rat plasma, P.O. 5 mg/kg

molecule: Nc1cccc2c1C(=S)N(C1CCC(=O)NC1=O)C2=O (stereo not shown) [3-MP, 3-Monothiopomalidomide]
AUC(0-inf) (ng·h/mL): 5860

---

# test_target: Serotonin 5-HT7A receptor (Homo sapiens, UniProt P34969)
# Sequence (P34969 1-445 isoform P34969-2): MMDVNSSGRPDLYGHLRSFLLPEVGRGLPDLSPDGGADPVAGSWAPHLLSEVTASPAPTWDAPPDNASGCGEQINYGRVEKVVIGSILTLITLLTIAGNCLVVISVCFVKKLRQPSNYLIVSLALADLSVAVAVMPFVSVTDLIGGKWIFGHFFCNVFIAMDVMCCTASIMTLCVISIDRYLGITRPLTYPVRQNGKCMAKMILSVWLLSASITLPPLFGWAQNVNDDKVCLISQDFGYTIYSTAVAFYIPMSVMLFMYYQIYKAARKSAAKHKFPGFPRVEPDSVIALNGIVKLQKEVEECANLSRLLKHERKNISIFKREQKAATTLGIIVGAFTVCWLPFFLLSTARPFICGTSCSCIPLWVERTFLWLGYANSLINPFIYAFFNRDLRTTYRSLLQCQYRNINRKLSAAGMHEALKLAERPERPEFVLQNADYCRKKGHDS
pIC50: −log10 of the molar value.

molecule: Nc1cccc2c1C(=S)N(C1CCC(=O)NC1=O)C2=O (stereo not shown) [3-MP, 3-Monothiopomalidomide]
pIC50: < 5.00

---

# assay_procedure: Brain entry in rats (brain and plasma at 5 h)
# Type: in vivo
# experimental_context: male, Fischer 344, rat, brain, other: I.P. or P.O., 13.25 or 26.50 mg/kg I.P. or P.O., read-out: brain concentrations as % of concomitant plasma levels

compound: Nc1cccc2c1C(=S)N(C1CCC(=O)NC1=O)C2=O (stereo not shown) [3-MP, 3-Monothiopomalidomide]
Kp at 5 h: 0.51 to 0.61

---

# assay_procedure: Pharmacokinetics in the rat, I.V. and P.O.
# Type: in vivo
# experimental_context: rat, plasma, oral, 5 mg/kg, rat, P.O. vs I.V., 5 mg/kg
property: bioavailability

compound: Nc1cccc2c1C(=S)N(C1CCC(=O)NC1=O)C2=O (stereo not shown) [3-MP, 3-Monothiopomalidomide]
result_value: ~38.5%

---

# test_target: Serotonin 5-HT1D receptor (Homo sapiens, UniProt P28221)
# Sequence (P28221 whole entry): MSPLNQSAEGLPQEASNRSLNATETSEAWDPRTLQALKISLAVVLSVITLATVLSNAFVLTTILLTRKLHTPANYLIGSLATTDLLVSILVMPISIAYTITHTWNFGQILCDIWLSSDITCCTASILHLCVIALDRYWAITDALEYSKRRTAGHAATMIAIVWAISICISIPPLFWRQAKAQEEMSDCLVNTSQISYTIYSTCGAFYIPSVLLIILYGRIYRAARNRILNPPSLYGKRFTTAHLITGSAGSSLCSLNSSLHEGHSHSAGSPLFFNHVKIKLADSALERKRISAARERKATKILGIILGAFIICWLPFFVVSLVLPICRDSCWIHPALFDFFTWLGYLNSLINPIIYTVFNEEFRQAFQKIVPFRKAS
property: IC50

compound: Nc1cccc2c1C(=S)N(C1CCC(=O)NC1=O)C2=O (stereo not shown) [3-MP, 3-Monothiopomalidomide]
result_value: > 10 µM

---

# test_target: Benzodiazepine BZP receptor
# assay_procedure: PDSP radioligand binding
# experimental_context: read-out: 3-MP concentration required to induce 50% inhibition of PDSP radioligand binding
# Method: To evaluate potential binding at classical neurological drug targets, 3-MP and 3,6’-DP were submitted to the National Institute on Mental Health (NIMH) Psychoactive Drug Screening Program (PDSP: Univ. N Carolina, Chapel Hill, NC, USA < https://pdspdb.unc.edu/pdspweb/ >) as powdered samples in the provided vials. The materials were then prepared at the PDSP in 10% DMSO, subjected to multiple assay screens, and processed as per the PDSP Assay Protocol Book (Version 3, March 2018). […]
pIC50: −log10 of the molar value.
property: pIC50

compound: Nc1cccc2c1C(=S)N(C1CCC(=O)NC1=O)C2=O (stereo not shown) [3-MP, 3-Monothiopomalidomide]
result_value: < 5.00

---

# test_target: NET transporter (Homo sapiens, UniProt P23975)

compound: Nc1cccc2c1C(=S)N(C1CCC(=O)NC1=O)C2=O (stereo not shown) [3-MP, 3-Monothiopomalidomide]
IC50: > 10 µM

---

# test_target: Histamine H2 receptor (Homo sapiens)
# Sequence (P25021 whole entry): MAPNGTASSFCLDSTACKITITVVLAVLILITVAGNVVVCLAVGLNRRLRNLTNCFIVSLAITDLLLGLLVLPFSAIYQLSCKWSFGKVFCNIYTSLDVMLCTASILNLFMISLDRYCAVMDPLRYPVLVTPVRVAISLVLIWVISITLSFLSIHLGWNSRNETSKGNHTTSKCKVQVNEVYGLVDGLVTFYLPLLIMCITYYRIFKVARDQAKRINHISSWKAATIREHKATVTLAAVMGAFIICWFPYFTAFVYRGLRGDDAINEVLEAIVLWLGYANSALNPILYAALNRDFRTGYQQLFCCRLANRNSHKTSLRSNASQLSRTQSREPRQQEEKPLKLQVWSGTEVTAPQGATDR
property: IC50

compound: Nc1cccc2c1C(=S)N(C1CCC(=O)NC1=O)C2=O (stereo not shown) [3-MP, 3-Monothiopomalidomide]
result_value: > 10 µM

---

Target chain: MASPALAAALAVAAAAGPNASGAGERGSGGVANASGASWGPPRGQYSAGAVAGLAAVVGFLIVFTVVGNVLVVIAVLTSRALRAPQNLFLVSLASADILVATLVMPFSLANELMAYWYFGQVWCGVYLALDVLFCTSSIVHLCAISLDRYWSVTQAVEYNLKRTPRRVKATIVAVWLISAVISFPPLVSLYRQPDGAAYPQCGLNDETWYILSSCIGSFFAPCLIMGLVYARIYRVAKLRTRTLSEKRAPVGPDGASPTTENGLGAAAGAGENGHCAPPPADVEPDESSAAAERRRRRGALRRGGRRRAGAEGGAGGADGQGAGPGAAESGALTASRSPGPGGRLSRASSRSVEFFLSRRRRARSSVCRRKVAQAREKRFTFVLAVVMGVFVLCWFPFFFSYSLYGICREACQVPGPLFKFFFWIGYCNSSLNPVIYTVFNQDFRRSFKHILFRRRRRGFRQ

molecule: Nc1cccc2c1C(=S)N(C1CCC(=O)NC1=O)C2=O (stereo not shown) [3-MP, 3-Monothiopomalidomide]
IC50: > 10 µM

---

# test_target: UniProtKB P47898
# Sequence (P47898 whole entry): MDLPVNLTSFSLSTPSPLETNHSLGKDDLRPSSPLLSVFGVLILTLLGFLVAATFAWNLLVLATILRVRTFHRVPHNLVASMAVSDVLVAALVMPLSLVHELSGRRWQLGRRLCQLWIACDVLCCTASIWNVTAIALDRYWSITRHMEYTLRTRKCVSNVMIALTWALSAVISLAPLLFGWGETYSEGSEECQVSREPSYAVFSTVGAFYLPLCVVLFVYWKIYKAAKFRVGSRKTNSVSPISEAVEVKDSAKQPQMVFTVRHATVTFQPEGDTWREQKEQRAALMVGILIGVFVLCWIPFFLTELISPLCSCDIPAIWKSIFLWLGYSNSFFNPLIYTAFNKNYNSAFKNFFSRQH
property: IC50

molecule: Nc1cccc2c1C(=S)N(C1CCC(=O)NC1=O)C2=O (stereo not shown) [3-MP, 3-Monothiopomalidomide]
test_target: UniProtKB P47898
property: IC50
result_value: > 10 µM

---

# assay_procedure: Pharmacokinetics in the rat, I.V. and P.O.
# Format: in vivo
# experimental_context: iv; rat plasma, I.V. bolus 5 mg/kg

compound: Nc1cccc2c1C(=S)N(C1CCC(=O)NC1=O)C2=O (stereo not shown) [3-MP, 3-Monothiopomalidomide]
unit_descriptor: µg·h/mL
AUC(0-inf): 15.2

---

# test_target: Histamine H1 receptor (Homo sapiens, UniProt P35367)
# Sequence (P35367 whole entry): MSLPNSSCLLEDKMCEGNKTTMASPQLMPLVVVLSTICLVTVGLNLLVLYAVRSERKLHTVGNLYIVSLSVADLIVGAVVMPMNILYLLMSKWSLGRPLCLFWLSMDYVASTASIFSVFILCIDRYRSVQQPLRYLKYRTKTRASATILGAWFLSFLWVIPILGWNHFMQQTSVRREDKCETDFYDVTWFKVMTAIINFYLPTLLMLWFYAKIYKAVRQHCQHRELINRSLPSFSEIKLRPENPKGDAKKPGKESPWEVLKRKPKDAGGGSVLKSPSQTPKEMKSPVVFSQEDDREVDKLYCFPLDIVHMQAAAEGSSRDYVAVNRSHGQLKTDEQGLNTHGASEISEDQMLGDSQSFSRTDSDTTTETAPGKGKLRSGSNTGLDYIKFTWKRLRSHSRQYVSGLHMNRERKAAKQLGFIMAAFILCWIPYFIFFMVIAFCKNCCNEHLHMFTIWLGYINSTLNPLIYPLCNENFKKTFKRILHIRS
# assay_procedure: PDSP radioligand binding
# experimental_context: read-out: 3-MP concentration required to induce 50% inhibition of PDSP radioligand binding
property: IC50

compound: Nc1cccc2c1C(=S)N(C1CCC(=O)NC1=O)C2=O (stereo not shown) [3-MP, 3-Monothiopomalidomide]
result_value: > 10 µM

---

# test_target: UniProtKB P35372
# Sequence (P35372 whole entry): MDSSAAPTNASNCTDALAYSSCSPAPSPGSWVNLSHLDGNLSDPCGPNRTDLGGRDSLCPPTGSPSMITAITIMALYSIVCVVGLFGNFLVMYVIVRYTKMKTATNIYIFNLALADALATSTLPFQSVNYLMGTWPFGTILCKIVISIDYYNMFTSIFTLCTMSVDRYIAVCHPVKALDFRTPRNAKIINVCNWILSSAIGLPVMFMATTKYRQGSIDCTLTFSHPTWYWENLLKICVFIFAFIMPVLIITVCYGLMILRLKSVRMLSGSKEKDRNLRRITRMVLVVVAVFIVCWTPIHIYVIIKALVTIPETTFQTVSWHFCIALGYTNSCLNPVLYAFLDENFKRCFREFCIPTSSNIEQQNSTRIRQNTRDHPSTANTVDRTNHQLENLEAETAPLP
property: IC50

compound: Nc1cccc2c1C(=S)N(C1CCC(=O)NC1=O)C2=O (stereo not shown) [3-MP, 3-Monothiopomalidomide]
result_value: > 10 µM

---

# test_target: Adrenergic Beta2 receptor (Homo sapiens)
# Sequence (P07550 whole entry): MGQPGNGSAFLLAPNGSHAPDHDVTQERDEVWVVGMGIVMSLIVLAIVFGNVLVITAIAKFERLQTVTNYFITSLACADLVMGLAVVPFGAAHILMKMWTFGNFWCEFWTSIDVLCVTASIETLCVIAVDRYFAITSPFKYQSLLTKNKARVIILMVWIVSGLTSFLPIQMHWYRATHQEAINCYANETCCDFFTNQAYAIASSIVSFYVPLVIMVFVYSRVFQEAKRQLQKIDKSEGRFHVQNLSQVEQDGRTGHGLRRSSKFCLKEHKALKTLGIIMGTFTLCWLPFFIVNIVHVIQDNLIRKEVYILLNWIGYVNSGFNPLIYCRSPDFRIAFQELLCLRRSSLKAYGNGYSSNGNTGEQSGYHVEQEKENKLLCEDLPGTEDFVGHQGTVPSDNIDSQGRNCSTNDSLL
pIC50: −log10 of the molar value.
property: pIC50

compound: Nc1cccc2c1C(=S)N(C1CCC(=O)NC1=O)C2=O (stereo not shown) [3-MP, 3-Monothiopomalidomide]
result_value: < 5.00

---

# assay_procedure: Pharmacokinetics in the rat, I.V. and P.O.
# Assay type: in vivo
# experimental_context: plasma, iv; rat, I.V. bolus 5 mg/kg
property: clearance

compound: Nc1cccc2c1C(=S)N(C1CCC(=O)NC1=O)C2=O (stereo not shown) [3-MP, 3-Monothiopomalidomide]
property: clearance
result_value: 5.65 mL/min/kg

---

# test_target: Serotonin 5-HT6 receptor (Homo sapiens, UniProt P50406)
# Sequence (P50406 whole entry): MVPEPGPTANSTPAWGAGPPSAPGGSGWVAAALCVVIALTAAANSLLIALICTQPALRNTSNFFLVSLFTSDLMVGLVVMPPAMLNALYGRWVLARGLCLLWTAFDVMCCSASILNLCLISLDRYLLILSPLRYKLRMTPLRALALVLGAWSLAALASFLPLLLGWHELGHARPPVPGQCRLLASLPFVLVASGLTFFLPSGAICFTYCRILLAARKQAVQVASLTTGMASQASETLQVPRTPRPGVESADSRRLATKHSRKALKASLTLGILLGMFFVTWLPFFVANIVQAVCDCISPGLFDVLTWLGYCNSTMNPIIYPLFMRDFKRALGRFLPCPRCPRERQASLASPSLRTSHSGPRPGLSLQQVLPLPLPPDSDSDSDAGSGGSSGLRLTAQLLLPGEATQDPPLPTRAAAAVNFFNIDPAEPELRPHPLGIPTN
pIC50: −log10 of the molar value.
property: pIC50

compound: Nc1cccc2c1C(=S)N(C1CCC(=O)NC1=O)C2=O (stereo not shown) [3-MP, 3-Monothiopomalidomide]
result_value: < 5.00

---

# test_target: Dopamine D4 receptor (Homo sapiens)
# Sequence (P21917 1-419): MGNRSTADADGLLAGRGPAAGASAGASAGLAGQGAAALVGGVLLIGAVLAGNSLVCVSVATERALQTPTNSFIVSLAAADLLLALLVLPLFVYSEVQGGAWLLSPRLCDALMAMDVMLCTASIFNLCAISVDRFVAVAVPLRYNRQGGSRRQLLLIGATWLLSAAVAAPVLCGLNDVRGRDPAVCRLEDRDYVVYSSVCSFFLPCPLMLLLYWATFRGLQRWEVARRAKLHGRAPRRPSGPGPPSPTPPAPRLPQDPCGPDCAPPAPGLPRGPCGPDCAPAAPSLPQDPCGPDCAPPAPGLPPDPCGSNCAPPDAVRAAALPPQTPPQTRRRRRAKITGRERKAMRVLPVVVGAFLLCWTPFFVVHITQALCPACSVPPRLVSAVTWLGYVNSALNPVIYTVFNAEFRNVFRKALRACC
property: IC50

compound: Nc1cccc2c1C(=S)N(C1CCC(=O)NC1=O)C2=O (stereo not shown) [3-MP, 3-Monothiopomalidomide]
result_value: > 10 µM
